biological target: Aβ40 (Homo sapiens); construct: The extent of Aβ40 aggregation in the presence of increasing concentrations of azacyclopeptides; experiment: Thioflavin T (ThT) fluorescence assay of Aβ40 aggregation; type: biochemical; conditions: Aβ:peptide 1:10; ThT; 10 μM soluble Aβ40
Square brackets hold non-standard residues; d marks the D form. Peptide text beside a SMILES is read from it. Nle = CCCC[C@H](N)C(=O)O; azaGly = NNC(=O)O
# cutoff 90% applies to Inhibition of amyloidogenic activity(%); >= gives true, < gives false

| Compound | Class name |
| --- | --- |
| CCCC[C@@H]1NC(=O)[C@@H](CC(C)C)NC(=O)[C@H](CCCCN)NC(=O)[C@@H](CO)NC(=O)[C@H](Cc2c[nH]cn2)NC(=O)[C@@H](Cc2c[nH]c3ccccc23)NC1=O [Compound 1, reference compound] (cyclo(K[dL][Nle][dW]H[dS])) | true |
| CCCC[C@@H]1NC(=O)[C@@H](CC(C)C)NC(=O)[C@H](CCCCN)NC(=O)NNC(=O)[C@H](Cc2c[nH]cn2)NC(=O)[C@@H](Cc2c[nH]c3ccccc23)NC1=O [Compound 3, c(D-Leu-L-Nle-D-Trp-L-His-Gly*-L-Lys)] (cyclo(K[dL][Nle][dW]H[azaGly])) | false |
| CCCC[C@@H]1NC(=O)[C@@H](CC(C)C)NC(=O)[C@H](CCCCN)NC(=O)[C@@H](CO)NC(=O)NNC(=O)[C@@H](Cc2c[nH]c3ccccc23)NC1=O [Compound 4, c(D-Leu-L-Nle-D-Trp-Gly*-D-Ser-L-Lys)] (cyclo(K[dL][Nle][dW][azaGly][dS])) | false |
| CCCC[C@@H]1NC(=O)NNC(=O)[C@H](CCCCN)NC(=O)[C@@H](CO)NC(=O)[C@H](Cc2c[nH]cn2)NC(=O)[C@@H](Cc2c[nH]c3ccccc23)NC1=O [Compound 7, c(Gly*-L-Nle-D-Trp-L-His-D-Ser-L-Lys)] (cyclo(K[azaGly][Nle][dW]H[dS])) | false |
| CC(C)C[C@H]1NC(=O)[C@H](CCCCN)NC(=O)[C@@H](CO)NC(=O)[C@H](Cc2c[nH]cn2)NC(=O)[C@@H](Cc2c[nH]c3ccccc23)NC(=O)NNC1=O [Compound 6, c(D-Leu-Gly*-D-Trp-L-His-D-Ser-L-Lys)] (cyclo(K[dL][azaGly][dW]H[dS])) | false |

====

molecular target: Aβ40 (Homo sapiens, UniProt P05067); construct: The extent of Aβ40 aggregation in the presence of increasing concentrations of azacyclopeptides; assay: Thioflavin T (ThT) fluorescence assay of Aβ40 aggregation; format: biochemical; conditions: Aβ:peptide 1:5; ThT; 10 μM soluble Aβ40
Sequence (P05067 672-711 limits assumed): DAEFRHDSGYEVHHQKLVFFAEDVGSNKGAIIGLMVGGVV
Square brackets hold non-standard residues; d marks the D form. Peptide text beside a SMILES is read from it. Nle = CCCC[C@H](N)C(=O)O; azaGly = NNC(=O)O
Readout kind: Inhibition of amyloidogenic activity(%)

| Molecule | Readout kind | Reported measurement |
| --- | --- | --- |
| CCCC[C@@H]1NC(=O)NNC(=O)[C@H](CCCCN)NC(=O)[C@@H](CO)NC(=O)[C@H](Cc2c[nH]cn2)NC(=O)[C@@H](Cc2c[nH]c3ccccc23)NC1=O [Compound 7, c(Gly*-L-Nle-D-Trp-L-His-D-Ser-L-Lys)] (cyclo(K[azaGly][Nle][dW]H[dS])) | Inhibition of amyloidogenic activity(%) | 78.8 |
| CCCC[C@@H]1NC(=O)[C@@H](CC(C)C)NC(=O)[C@H](CCCCN)NC(=O)NNC(=O)[C@H](Cc2c[nH]cn2)NC(=O)[C@@H](Cc2c[nH]c3ccccc23)NC1=O [Compound 3, c(D-Leu-L-Nle-D-Trp-L-His-Gly*-L-Lys)] (cyclo(K[dL][Nle][dW]H[azaGly])) | Inhibition of amyloidogenic activity(%) | 81.3 |

Origin of measurements: patent US12616760B2
